- TARGET_OR_TEST_SYSTEM: B2 receptor (Cavia porcellus)
- Construct: from tissue
- ASSAY: GPI binding B2
- DETAILS: i.a. = inactive
Square brackets hold non-standard residues; d marks the D form. Peptide text beside a SMILES is read from it. dIgl = N[C@@H](C(=O)O)C1Cc2ccccc2C1; Igl = N[C@H](C(=O)O)C1Cc2ccccc2C1; Hyp = O=C(O)[C@@H]1C[C@@H](O)CN1
READOUT_NAME: GPI Binding - pIC50 B2

compound="CC(C)C[C@H](NC(=O)[C@H](NC(=O)[C@H](CO)NC(=O)[C@@H](NC(=O)CNC(=O)[C@@H]1C[C@@H](O)CN1C(=O)[C@@H]1CCCN1C(=O)[C@@H](N)CCCNC(=N)N)C1Cc2ccccc2C1)C1Cc2ccccc2C1)C(=O)O [B9814, Arg-Pro-Hyp-Gly-Igl-Ser-DIgl-Leu] (H-RP[Hyp]G[Igl]S[dIgl]L-OH)" readout_value=i.a

---

Record: IC50 reported on B1 receptor (Homo sapiens).
Sequence (P46663 whole entry): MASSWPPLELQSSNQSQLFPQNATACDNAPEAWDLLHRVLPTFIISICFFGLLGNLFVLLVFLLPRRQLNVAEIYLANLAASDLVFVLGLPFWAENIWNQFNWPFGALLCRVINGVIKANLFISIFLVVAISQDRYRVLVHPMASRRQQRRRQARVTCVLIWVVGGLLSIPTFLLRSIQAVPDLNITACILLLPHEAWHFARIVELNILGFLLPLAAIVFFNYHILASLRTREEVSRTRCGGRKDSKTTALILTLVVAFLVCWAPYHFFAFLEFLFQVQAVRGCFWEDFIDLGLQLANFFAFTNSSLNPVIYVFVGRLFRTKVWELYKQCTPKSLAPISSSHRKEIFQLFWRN
Square brackets hold non-standard residues; d marks the D form. Peptide text beside a SMILES is read from it. * marks the point of attachment. Oic = O=C(O)[C@@H]1C[C@@H]2CCCC[C@@H]2N1; X1 = N=C(N)NCCC[C@@H](NC(=N)N)C(=O)*; dIgl = N[C@@H](C(=O)O)C1Cc2ccccc2C1; Gly(cPent) = N[C@H](C(=O)O)C1CCCC1; Igl = N[C@H](C(=O)O)C1Cc2ccccc2C1; Hyp = O=C(O)[C@@H]1C[C@@H](O)CN1; Tic = O=C(O)[C@@H]1Cc2ccccc2CN1; dTic = O=C(O)[C@H]1Cc2ccccc2CN1; 2Thi = N[C@@H](Cc1cccs1)C(=O)O
READOUT_NAME: IC50 (nM)

compound="N=C(N)NCCC[C@H](NC(=O)[C@@H](CCCNC(=N)N)NC(=N)N)C(=O)N1CCC[C@H]1C(=O)N1C[C@H](O)C[C@H]1C(=O)NCC(=O)N[C@@H](Cc1cccs1)C(=O)N[C@@H](CO)C(=O)N[C@@H](C(=O)N1[C@H](C(=O)O)C[C@@H]2CCCC[C@@H]21)C1Cc2ccccc2C1 [B9826] (X1-RP[Hyp]G[2Thi]S[dIgl][Oic]-OH)" readout_value=0.126
compound="N=C(N)NCCC[C@@H](N)C(=O)N[C@@H](CCCNC(=N)N)C(=O)N1CCC[C@H]1C(=O)N1C[C@H](O)C[C@H]1C(=O)NCC(=O)N[C@@H](Cc1cccs1)C(=O)N[C@@H](CO)C(=O)N1Cc2ccccc2C[C@H]1C(=O)N[C@H](C(=O)O)C1CCCC1 [B9006, DArg-Arg-Pro-Hyp-Gly-Thi-Ser-Tic-Cpg] (H-[dR]RP[Hyp]G[2Thi]S[Tic][Gly(cPent)]-OH)" readout_value=12.6
compound="N=C(N)NCCC[C@H](NC(=O)[C@@H](N)CCCCN)C(=O)N1CCC[C@H]1C(=O)N1C[C@H](O)C[C@H]1C(=O)NCC(=O)N[C@H](C(=O)N[C@@H](CO)C(=O)N1Cc2ccccc2C[C@@H]1C(=O)N[C@H](C(=O)O)C1CCCC1)C1Cc2ccccc2C1 [B9842, Lys-Arg-Pro-Hyp-Gly-Igl-Ser-DTic-Cpg] (H-KRP[Hyp]G[Igl]S[dTic][Gly(cPent)]-OH)" readout_value=0.251

---

- TARGET_OR_TEST_SYSTEM: B2 receptor (Cavia porcellus)
- Construct: from tissue
- ASSAY: GPI binding B2
- DETAILS: i.a. = inactive
Square brackets hold non-standard residues; d marks the D form. Peptide text beside a SMILES is read from it. Gly(cPent) = N[C@H](C(=O)O)C1CCCC1; Igl = N[C@H](C(=O)O)C1Cc2ccccc2C1; Hyp = O=C(O)[C@@H]1C[C@@H](O)CN1; dTic = O=C(O)[C@H]1Cc2ccccc2CN1
READOUT_NAME: GPI Binding - pIC50 B2

molecule="N=C(N)NCCC[C@H](NC(=O)[C@@H](N)CCCCN)C(=O)N1CCC[C@H]1C(=O)N1C[C@H](O)C[C@H]1C(=O)NCC(=O)N[C@H](C(=O)N[C@@H](CO)C(=O)N1Cc2ccccc2C[C@@H]1C(=O)N[C@H](C(=O)O)C1CCCC1)C1Cc2ccccc2C1 [B9842, Lys-Arg-Pro-Hyp-Gly-Igl-Ser-DTic-Cpg] (H-KRP[Hyp]G[Igl]S[dTic][Gly(cPent)]-OH)" readout_value=i.a.
molecule="N=C(N)NCCC[C@@H](N)C(=O)N[C@@H](CCCNC(=N)N)C(=O)N1CCC[C@H]1C(=O)N1C[C@H](O)C[C@H]1C(=O)NCC(=O)N[C@H](C(=O)N[C@@H](CO)C(=O)N1Cc2ccccc2C[C@@H]1C(=O)N[C@H](C(=O)O)C1CCCC1)C1Cc2ccccc2C1 [B9840, DArg-Arg-Pro-Hyp-Gly-Igl-Ser-DTic-Cpg] (H-[dR]RP[Hyp]G[Igl]S[dTic][Gly(cPent)]-OH)" readout_value=i.a
molecule="CC(C)C[C@H](NC(=O)[C@@H]1CCCN1C(=O)[C@H](CO)NC(=O)[C@H](Cc1ccccc1)NC(=O)CNC(=O)[C@@H]1CCCN1C(=O)[C@@H]1CCCN1C(=O)[C@H](CCCNC(=N)N)NC(=O)[C@H](CCCCN)NC(=O)CNC(=N)N)C(=O)O [B9810]" readout_value=i.a

---

- TARGET_OR_TEST_SYSTEM: B2 receptor (Homo sapiens, UniProt P30411)
- Construct: expressed in transfected cells
- Sequence (P30411 1-391): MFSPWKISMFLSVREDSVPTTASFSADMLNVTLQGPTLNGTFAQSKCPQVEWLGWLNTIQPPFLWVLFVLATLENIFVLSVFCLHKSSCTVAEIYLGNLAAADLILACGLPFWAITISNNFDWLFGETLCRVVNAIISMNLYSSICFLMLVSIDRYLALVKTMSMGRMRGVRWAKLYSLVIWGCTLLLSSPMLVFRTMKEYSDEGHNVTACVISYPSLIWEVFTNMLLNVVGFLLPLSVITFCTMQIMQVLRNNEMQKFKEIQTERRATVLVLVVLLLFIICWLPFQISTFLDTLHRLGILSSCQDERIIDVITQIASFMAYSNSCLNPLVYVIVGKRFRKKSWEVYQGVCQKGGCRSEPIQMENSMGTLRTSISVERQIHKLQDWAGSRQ
- ASSAY: Human B2 binding, human BK2 clone membranes, 3H-Bradykinin
- DETAILS: 0.3 nM 3H-Bradykinin, i.a. = inactive, read-out: Human Binding - pIC50 B2 (converted)
Square brackets hold non-standard residues; d marks the D form. Peptide text beside a SMILES is read from it. Gly(cPent) = N[C@H](C(=O)O)C1CCCC1; Igl = N[C@H](C(=O)O)C1Cc2ccccc2C1; Hyp = O=C(O)[C@@H]1C[C@@H](O)CN1; dTic = O=C(O)[C@H]1Cc2ccccc2CN1
Parameter IC50: see the listing below.
READOUT_NAME: IC50 (nM)

molecule=N=C(N)NCCC[C@H](NC(=O)[C@H](CCCCN)NC(=O)[C@@H](N)CCCCN)C(=O)N1CCC[C@H]1C(=O)N1C[C@H](O)C[C@H]1C(=O)NCC(=O)N[C@H](C(=O)N[C@@H](CO)C(=O)N[C@@H](C(=O)N1[C@H](C(=O)O)C[C@@H]2CCCC[C@@H]21)C1Cc2ccccc2C1)C1Cc2ccccc2C1 measure_unit=nM readout_value=20
molecule="N=C(N)NCCC[C@H](NC(=O)[C@@H](N)CCCCN)C(=O)N1CCC[C@H]1C(=O)N1C[C@H](O)C[C@H]1C(=O)NCC(=O)N[C@H](C(=O)N[C@@H](CO)C(=O)N1Cc2ccccc2C[C@@H]1C(=O)N[C@H](C(=O)O)C1CCCC1)C1Cc2ccccc2C1 [B9842, Lys-Arg-Pro-Hyp-Gly-Igl-Ser-DTic-Cpg] (H-KRP[Hyp]G[Igl]S[dTic][Gly(cPent)]-OH)" measure_unit=nM readout_value=631
molecule="N=C(N)NCCC[C@@H](N)C(=O)N[C@@H](CCCNC(=N)N)C(=O)N1CCC[C@H]1C(=O)N1C[C@H](O)C[C@H]1C(=O)NCC(=O)N[C@H](C(=O)N[C@@H](CO)C(=O)N1Cc2ccccc2C[C@@H]1C(=O)N[C@H](C(=O)O)C1CCCC1)C1Cc2ccccc2C1 [B9840, DArg-Arg-Pro-Hyp-Gly-Igl-Ser-DTic-Cpg] (H-[dR]RP[Hyp]G[Igl]S[dTic][Gly(cPent)]-OH)" measure_unit=nM readout_value=631

---

- TARGET_OR_TEST_SYSTEM: B2 receptor (Cavia porcellus, UniProt O70526)
- Construct: from tissue
- Sequence (O70526 1-372): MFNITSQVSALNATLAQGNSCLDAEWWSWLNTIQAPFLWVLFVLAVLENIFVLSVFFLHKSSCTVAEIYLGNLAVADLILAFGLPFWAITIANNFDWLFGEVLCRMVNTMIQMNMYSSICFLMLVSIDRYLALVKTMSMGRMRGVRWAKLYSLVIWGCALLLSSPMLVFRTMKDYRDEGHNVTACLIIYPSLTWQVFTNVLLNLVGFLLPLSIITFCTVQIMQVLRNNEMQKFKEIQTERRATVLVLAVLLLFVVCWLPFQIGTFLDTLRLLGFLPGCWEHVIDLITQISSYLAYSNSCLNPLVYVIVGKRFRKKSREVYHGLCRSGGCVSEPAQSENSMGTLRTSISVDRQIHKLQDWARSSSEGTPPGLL
- ASSAY: GPI binding B2
- DETAILS: i.a. = inactive, read-out: GPI Binding - pIC50 B2 (converted)
Square brackets hold non-standard residues; d marks the D form. Peptide text beside a SMILES is read from it. * marks the point of attachment. Oic = O=C(O)[C@@H]1C[C@@H]2CCCC[C@@H]2N1; X1 = N=C(N)NCCC[C@@H](NC(=N)N)C(=O)*; dIgl = N[C@@H](C(=O)O)C1Cc2ccccc2C1; Gly(cPent) = N[C@H](C(=O)O)C1CCCC1; Igl = N[C@H](C(=O)O)C1Cc2ccccc2C1; Hyp = O=C(O)[C@@H]1C[C@@H](O)CN1; Tic = O=C(O)[C@@H]1Cc2ccccc2CN1; dTic = O=C(O)[C@H]1Cc2ccccc2CN1; 2Thi = N[C@@H](Cc1cccs1)C(=O)O
Binary label based on IC50 with cut-off 6 µM: below gives Criterion met, not below gives Criterion not met.

compound="N=C(N)NCCC[C@H](NC(=O)[C@@H](CCCNC(=N)N)NC(=N)N)C(=O)N1CCC[C@H]1C(=O)N1C[C@H](O)C[C@H]1C(=O)NCC(=O)N[C@@H](Cc1cccs1)C(=O)N[C@@H](CO)C(=O)N[C@@H](C(=O)N1[C@H](C(=O)O)C[C@@H]2CCCC[C@@H]21)C1Cc2ccccc2C1 [B9826] (X1-RP[Hyp]G[2Thi]S[dIgl][Oic]-OH)" label_value="Criterion met"
compound="N=C(N)NCCC[C@@H](N)C(=O)N[C@@H](CCCNC(=N)N)C(=O)N1CCC[C@H]1C(=O)N1C[C@H](O)C[C@H]1C(=O)NCC(=O)N[C@@H](Cc1cccs1)C(=O)N[C@@H](CO)C(=O)N1Cc2ccccc2C[C@H]1C(=O)N[C@H](C(=O)O)C1CCCC1 [B9006, DArg-Arg-Pro-Hyp-Gly-Thi-Ser-Tic-Cpg] (H-[dR]RP[Hyp]G[2Thi]S[Tic][Gly(cPent)]-OH)" label_value="Criterion not met"
compound="N=C(N)NCCC[C@@H](N)C(=O)N[C@@H](CCCNC(=N)N)C(=O)N1CCC[C@H]1C(=O)N1C[C@H](O)C[C@H]1C(=O)NCC(=O)N[C@@H](Cc1cccs1)C(=O)N[C@@H](CO)C(=O)N1Cc2ccccc2C[C@@H]1C(=O)N[C@H](C(=O)O)C1CCCC1 [B9068, DArg-Arg-Pro-Hyp-Gly-Thi-Ser-DTic-Cpg] (H-[dR]RP[Hyp]G[2Thi]S[dTic][Gly(cPent)]-OH)" label_value="Criterion not met"
compound="CC(C)C[C@H](NC(=O)[C@H](NC(=O)[C@H](CO)NC(=O)[C@@H](NC(=O)CNC(=O)[C@@H]1C[C@@H](O)CN1C(=O)[C@@H]1CCCN1C(=O)[C@H](CCCNC(=N)N)NC(=O)[C@H](N)CCCNC(=N)N)C1Cc2ccccc2C1)C1Cc2ccccc2C1)C(=O)O [B9816, DArg-Arg-Pro-Hyp-Gly-Igl-Ser-DIgl-Leu] (H-[dR]RP[Hyp]G[Igl]S[dIgl]L-OH)" label_value="Criterion met"
compound=N=C(N)NCCC[C@H](NC(=O)[C@H](CCCCN)NC(=O)[C@@H](N)CCCCN)C(=O)N1CCC[C@H]1C(=O)N1C[C@H](O)C[C@H]1C(=O)NCC(=O)N[C@H](C(=O)N[C@@H](CO)C(=O)N[C@@H](C(=O)N1[C@H](C(=O)O)C[C@@H]2CCCC[C@@H]21)C1Cc2ccccc2C1)C1Cc2ccccc2C1 label_value="Criterion met"
compound="N=C(N)NCCC[C@@H](N)C(=O)N[C@@H](CCCNC(=N)N)C(=O)N1CCC[C@H]1C(=O)N1C[C@H](O)C[C@H]1C(=O)NCC(=O)N[C@H](C(=O)N[C@@H](CO)C(=O)N1Cc2ccccc2C[C@@H]1C(=O)N[C@H](C(=O)O)C1CCCC1)C1CCCC1 [B9066, DArg-Arg-Pro-Hyp-Gly-Cpg-Ser-DTic-Cpg] (H-[dR]RP[Hyp]G[Gly(cPent)]S[dTic][Gly(cPent)]-OH)" label_value="Criterion met"
compound="N=C(N)NCCC[C@@H](N)C(=O)N[C@@H](CCCNC(=N)N)C(=O)N1CCC[C@H]1C(=O)N1C[C@H](O)C[C@H]1C(=O)NCC(=O)N[C@H](C(=O)N[C@@H](CO)C(=O)N1Cc2ccccc2C[C@H]1C(=O)N[C@H](C(=O)O)C1CCCC1)C1CCCC1 [B9004, DArg-Arg-Pro-Hyp-Gly-Cpg-Ser-Tic-Cpg] (H-[dR]RP[Hyp]G[Gly(cPent)]S[Tic][Gly(cPent)]-OH)" label_value="Criterion not met"
